pIC50: −log10 of the molar value.
Dear all, this message contains pIC50 results, target or system CK1δ (Homo sapiens (Human), UniProt P48730).
READOUT_LABEL: pIC50

Please review the entries below; each comes with its answer.
>>> value("Cc1nc(-c2ccc(F)cc2)c(-c2ccc3nc(NC(=O)c4ccc(-n5cccn5)nc4)cn3n2)n1C")
9.32
>>> value("CC(C)CCN1CCC(n2cnc(-c3ccc(F)cc3)c2-c2ccc3nc(NC(=O)c4ccnc(F)c4)cn3n2)CC1")
9.22
>>> value("Cc1nc(-c2ccc(F)cc2)c(-c2ccc3nc(NC(=O)Nc4cccc(C#N)c4)cn3n2)n1C")
8.12

1 = CC(C)(C)C1CCC(n2cnc(-c3ccc(F)cc3)c2-c2ccc3nc(NC(=O)c4ccnc(F)c4)cn3n2)CC1 (stereo not drawn)
2 = Cc1n[nH]cc1C(=O)Nc1cn2nc(-c3c(-c4ccc(F)cc4)nc(C)n3C)ccc2n1
3 = Cc1nc(-c2ccc(F)cc2)c(-c2ccc3nc(NC(=O)c4c[nH]c5ccccc45)cn3n2)n1C
4 = Cc1nc(-c2ccc(F)cc2)c(-c2ccc3nc(NC(=O)[C@@H]4CCCN4)cn3n2)n1C
5 = O=C(Nc1cn2nc(-c3c(-c4ccc(F)cc4)ncn3C3CCN(C(=O)OC4COC4)CC3)ccc2n1)c1ccnc(F)c1
Prompt: Sort (5 compounds) by pIC50: min first. Returns: the labels listed in the requested order.
Completion: 4, 1, 3, 2, 5
(4: 7.70, 1: 7.99, 3: 8.85, 2: 9.18, 5: 9.77)

----------
target: CK1ε (Homo sapiens (Human))
Sequence (P49674 whole entry): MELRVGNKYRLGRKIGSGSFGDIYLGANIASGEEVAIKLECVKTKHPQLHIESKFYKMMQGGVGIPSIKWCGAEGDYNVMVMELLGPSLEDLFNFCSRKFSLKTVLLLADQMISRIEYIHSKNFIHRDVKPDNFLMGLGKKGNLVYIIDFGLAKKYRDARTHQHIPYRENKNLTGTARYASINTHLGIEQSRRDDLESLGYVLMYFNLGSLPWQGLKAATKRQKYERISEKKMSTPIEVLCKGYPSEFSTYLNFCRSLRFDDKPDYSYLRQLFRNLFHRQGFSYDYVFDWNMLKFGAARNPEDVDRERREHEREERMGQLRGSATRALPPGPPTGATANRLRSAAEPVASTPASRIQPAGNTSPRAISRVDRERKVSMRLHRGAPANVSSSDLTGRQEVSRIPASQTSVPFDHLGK
READOUT_LABEL: IC50 (nM)

>>> value("Cc1nc(-c2ccc(F)cc2)c(-c2ccc3nc(NC(=O)c4cc(-c5ccc(F)cc5)ncn4)cn3n2)n1C")
270
>>> value("O=C(Nc1cn2nc(-c3c(-c4ccc(F)cc4)ncn3C3CCN(C(=O)OC4CCOCC4)CC3)ccc2n1)c1ccnc(F)c1")
1.63
>>> value("Cc1cc[nH]c1C(=O)Nc1cn2nc(-c3c(-c4ccc(F)cc4)nc(C)n3C)ccc2n1")
12.3

P = Cn1ccc(Cn2cnc(-c3ccc(F)cc3)c2-c2ccc3nc(NC(=O)c4ccnc(F)c4)cn3n2)n1
Q = O=C(Nc1cn2nc(-c3c(-c4ccc(F)cc4)ncn3C3CCN(CCC(F)(F)F)CC3)ccc2n1)c1ccnc(N2CCOCC2)c1
Prompt: Thinking about recorded IC50 values, which is higher, P or Q ? Lab log: write the label of the selected item as the result.
Completion: P

----------
target: CK1ε (Homo sapiens (Human)); experiment: CK1ε kinase assay (Caliper LABCHIP electrophoretic separation of fluoresceinated peptide substrate and product); type: biochemical; conditions: 200 pM enzyme, 50 μM ATP, 22 hours at room temperature
pIC50: −log10 of the molar value.
READOUT_LABEL: pIC50

// known answers, use as guide
>>> value("Cc1nc(-c2ccc(F)cc2)c(-c2ccc3nc(NC(=O)c4ccnc(F)c4)cn3n2)n1C1CCN(CCCC(F)(F)F)CC1")
7.61
>>> value("O=C(Nc1cn2nc(-c3c(-c4ccc(F)cc4)ncn3C3CCN(Cc4ccc(O)nc4)CC3)ccc2n1)c1ccnc(F)c1")
8.70
>>> value("O=C(Nc1cn2nc(-c3c(-c4ccc(F)cc4)nc4ccc(N5CCOCC5)nn34)ccc2n1)c1ccncc1")
7.99
>>> value("O=C(Nc1cn2nc(-c3c(-c4ccc(F)cc4)ncn3C3CCN(C(=O)c4ccon4)CC3)ccc2n1)c1cc(F)nc(F)c1")
8.61
>>> value("O=C(Nc1cn2nc(-c3c(-c4ccc(F)cc4)ncn3C3CCN(C(=O)OCC4CC4(F)F)CC3)ccc2n1)c1ccnc(F)c1 (centres unmarked)")
8.80
>>> value("CC(C)(C)c1cc(C(=O)Nc2cn3nc(-c4c(-c5ccc(F)cc5)nc5ccccn45)ccc3n2)ncn1")
7.55
>>> value("Cc1nc(-c2ccc(F)cc2)c(-c2ccc3nc(NC(=O)c4cc(C(C)(C)C)ncn4)cn3n2)n1C")
7.63

a = Cc1nc(-c2ccc(F)cc2)c(-c2ccc3nc(NC(=O)c4ccnc(F)c4)c(C)n3n2)n1C
b = Cc1nnsc1C(=O)Nc1cn2nc(-c3c(-c4ccc(F)cc4)nc4ccccn34)ccc2n1
c = O=C(Nc1cn2nc(-c3c(-c4ccc(F)cc4)nc4ccc(N5CCCC5)nn34)ccc2n1)c1ccncc1
d = CC(C)(C)C(=O)Nc1cn2nc(-c3c(-c4ccc(F)cc4)ncn3CC3CNC(=O)C3)ccc2n1 (centres unmarked)
Prompt: Arrange the 4 entries by pIC50 so the values rise. Lab note: record answer as labels in requested order.
Completion: b, c, a, d
(b: 5.82, c: 7.36, a: 7.71, d: 8.42)

----------
Observed pIC50 values for CK1δ (Homo sapiens (Human), UniProt P48730) are listed in what follows.
pIC50: −log10 of the molar value.
READOUT_LABEL: pIC50

Here are 5 compounds together with their reported answers.
>>> value("O=C(Nc1cn2nc(-c3c(-c4ccc(F)cc4)ncn3CCN3CCC(F)(F)CC3)ccc2n1)c1ccnc(F)c1 [Compound 251]")
9.41
>>> value("Cc1nc(-c2ccc(F)cc2)c(-c2ccc3nc(NC(=O)c4ccc(C#N)cc4)cn3n2)n1C [Compound 356]")
9.29
>>> value("N#CCC(=O)N1CCC(n2cnc(-c3ccc(F)cc3)c2-c2ccc3nc(NC(=O)c4ccnc(F)c4)cn3n2)CC1 [Compound 46]")
9.70
>>> value("Cc1nnc(C(=O)Nc2cn3nc(-c4c(-c5ccc(F)cc5)nc(C)n4C)ccc3n2)o1 [Compound 367]")
8.44
>>> value("O=C(Nc1cn2nc(-c3c(-c4ccc(F)cc4)ncn3-c3ccc(F)cc3)ccc2n1)c1ccnc(N2CCOCC2)c1 [Compound 419]")
8.51

a = Cc1nc(-c2ccc(F)cc2)c(-c2ccc3nc(NC(=O)c4cccc(CN5CCCC5)c4)cn3n2)n1C [Compound 394]
b = O=C(Nc1cn2nc(-c3c(-c4ccc(F)cc4)nc(C4CC4)n3C3CCN(CCC(F)(F)F)CC3)ccc2n1)c1ccnc(F)c1 [Compound 130]
Prompt: Please indicate which has the smaller reported pIC50: a , or b . Indicate which entry you chose by stating its label.
Completion: a

P = Cc1nc(-c2ccc(F)cc2)c(-c2ccc3nc(NC(=O)c4cnn(C)c4)cn3n2)n1C [Compound 359]
Q = Cc1nc(-c2ccc(F)cc2)c(-c2ccc3nc(NC(=O)c4cncs4)cn3n2)n1C [Compound 303]
R = COC(=O)N1CCC(n2cnc(-c3ccc(F)cc3)c2-c2ccc3nc(NC(=O)c4ccnc(F)c4)cn3n2)CC1 [Compound 84]
S = Cc1nc(-c2ccc(F)cc2)c(-c2ccc3nc(NC(=O)c4cccn4C)cn3n2)n1C [Compound 357]
T = O=C(Nc1cn2nc(-c3c(-c4ccc(F)cc4)nc4n3CCNC4)ccc2n1)c1cccc(-c2cccnc2)c1 [Compound 459]
Prompt: Arrange these compounds by their pIC50, starting with the largest number. Ranked list of labels, please, in the requested order.
Completion: R, T, P, S, Q
(R: 9.75, T: 9.52, P: 9.22, S: 8.83, Q: 8.41)

----------
Below are compounds with their pIC50 as measured on UniProt:P48730.
pIC50: −log10 of the molar value.
READOUT_LABEL: pIC50

>>> value("Cc1nc(-c2ccc(F)cc2)c(-c2ccc3nc(NC(=O)c4ccnc(F)c4)cn3n2)n1C1CCN(CCC(F)(F)F)CC1 [Compound 145]")
9.02
>>> value("O=C(Nc1cn2nc(-c3c(-c4cccc(F)c4)ncn3CC(F)F)ccc2n1)c1ccnc(F)c1 [Compound 245]")
9.05

a = O=C(Nc1cn2nc(-c3c(-c4ccc(F)cc4)ncn3C3CCN(C(=O)CC(F)(F)F)CC3)ccc2n1)c1ccnc(F)c1 [Compound 42]
b = O=C(Nc1cn2nc(-c3c(-c4ccc(F)cc4)ncn3C3CCN(C(=O)c4ccon4)CC3)ccc2n1)c1ccncc1 [Compound 5]
Prompt: Sorting ascending by pIC50, which comes first: a or b ? Indicate which entry you chose by stating its label.
Completion: a

----------
pIC50: −log10 of the molar value.
CK1δ (Homo sapiens (Human)) data, read-out pIC50
Sequence (P48730 whole entry): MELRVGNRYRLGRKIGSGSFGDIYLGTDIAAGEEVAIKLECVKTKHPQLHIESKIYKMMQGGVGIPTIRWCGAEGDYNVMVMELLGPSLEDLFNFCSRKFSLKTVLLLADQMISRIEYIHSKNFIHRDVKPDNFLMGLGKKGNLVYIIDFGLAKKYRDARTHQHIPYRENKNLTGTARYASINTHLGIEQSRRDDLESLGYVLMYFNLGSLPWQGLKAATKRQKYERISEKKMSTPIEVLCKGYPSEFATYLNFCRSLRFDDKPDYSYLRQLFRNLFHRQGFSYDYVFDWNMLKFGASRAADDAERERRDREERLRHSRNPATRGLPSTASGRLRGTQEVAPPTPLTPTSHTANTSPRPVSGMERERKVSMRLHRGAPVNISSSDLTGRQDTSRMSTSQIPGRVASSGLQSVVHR
READOUT_LABEL: pIC50

Worked cases, pIC50 given:
>>> value("O=C(Nc1cn2nc(-c3c(-c4ccc(F)cc4)ncn3CCc3c[nH]cn3)ccc2n1)c1ccnc(F)c1")
9.41
>>> value("Cc1noc(C)c1C(=O)N1CCC(n2cnc(-c3ccc(F)cc3)c2-c2ccc3nc(NC(=O)c4ccnc(F)c4)cn3n2)CC1")
9.49
>>> value("O=C(Nc1cn2nc(-c3c(-c4ccc(F)cc4)nc4ccccn34)ccc2n1)c1ccnc(O)c1")
9.22
>>> value("O=C1CN(CCn2cnc(-c3ccc(F)cc3)c2-c2ccc3nc(NC(=O)c4ccnc(F)c4)cn3n2)CCN1")
9.54

a = Cc1nc(-c2ccc(F)cc2)c(-c2ccc3nc(NC(=O)c4ccccc4F)cn3n2)n1C
b = Cc1nc(-c2ccncc2)sc1C(=O)Nc1cn2nc(-c3c(-c4ccc(F)cc4)nc4ccccn34)ccc2n1
Prompt: Parameter check: reported pIC50 is higher for which label, a or b ? Please respond with the label that marks your chosen entry.
Completion: b
(b: 8.94, a: 8.67)
